Values were extracted from patent US9839642B2.

- system: NDM-1 (Klebsiella pneumoniae)
- Sequence (C7C422 29-270, looked up, species assumed): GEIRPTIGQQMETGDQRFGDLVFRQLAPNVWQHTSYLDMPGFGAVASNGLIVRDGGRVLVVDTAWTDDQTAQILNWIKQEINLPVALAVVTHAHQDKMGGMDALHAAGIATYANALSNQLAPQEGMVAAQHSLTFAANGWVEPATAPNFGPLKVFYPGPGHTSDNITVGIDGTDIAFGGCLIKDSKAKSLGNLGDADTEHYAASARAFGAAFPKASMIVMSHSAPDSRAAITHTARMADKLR
- method_description: Enzyme activity: determination of IC50, fluorescence assay with CCF2-FA substrate
- Assay type: biochemical
- conditions_used: NDM-1 enzyme 1 pM, CCF2-FA 1.25 μM, 2 hours at 25° C.; read-out: NDM1 IC50
assay_metric: IC50

Answered examples (3):
{"molecule": "CC(C)C[C@H](C(=O)O)[C@H](Cc1ccc(CCCN)c(F)c1)c1nn[nH]n1.O=C(O)C(F)(F)F [Example 440, 2,2,2-trifluoroacetate]", "IC50": "37.5 nM"}
{"molecule": "CCC[C@H](C(=O)O)[C@H](Cc1cccc(-c2ccc(C(=O)NC)cc2)c1)c1nn[nH]n1 [Example 344]", "IC50": "14 nM"}
{"molecule": "CNC(=O)C1CCN(c2ccc(C[C@H](c3nnn[nH]3)[C@H](CC(C)C)C(=O)O)cn2)C1 (stereo partly shown) [Example 305]", "IC50": "120 nM"}

We now examine a further molecule.
Entry CC(C)C[C@H](C(=O)O)[C@H](Cc1ccc(Oc2ccccc2N2CCNCC2)nc1)c1nn[nH]n1 [Example 372] — recorded IC50 = 570 nM
